target: T1, SARS-CoV2 spike RBD variant (SRD-C52H2, Acro Biosystems, N440K) (SARS-CoV-2, UniProt P0DTC2 319-537); assay: BLI (Octet), biotinylated RBD on SA sensor, VHH as analyte, 1:1 fit
T1 construct: domain: RBD
Measured Attribute: Kd (nM)
One number for each entry, in nM.

Please review the following examples before continuing.
Binder	Result Units	Test Value
Bacillus subtilis-derived VHH-COVE9 (VHH) VHH: EVQLVESGGGLVQPGGSLRLSCAASGTIFSTNAMSWYRQAPGKQRELVAAITSGGNTNYADSVKGRFTISRDNAKNTVYLQMNSLKPEDTAVYYCNAPGVVTGSYDVRNYWGQGTQVTVSS	nM	12.5
Bacillus subtilis-derived VHH-COVE3 (VHH) VHH: AEVQLVESGGGFVQAGGSLRLSCRVSAPTFMTYTMAWFRQAPGNEREFVAALSKNFVTTSYADSVKGRFTISRDNAKNTVYLQMNSLKPEDTAVYYCNVAWSDYEYLEVWGQGTLVTVSSGGGSHHHHHH	nM	15.4
Bacillus subtilis-derived VHH-COVE7 (VHH) VHH: EVQLVESGGGLVQAGDSLRLSCTASGRTFSSCAMGWFRQAPGKEREFVAAISRGGGSTSYADSVKGRFTISKDRARNTAYLEMNSLKPEDTAIYYCYAVFPSGGDYWGQGTQVTVSS	nM	24.2

Hello, I would appreciate it if you could give Kd for each entry below.
1. Bacillus subtilis-derived VHH-COVE5 (VHH) VHH: EVQLVESGGGLVQAGGSLRLSCTASDQIFDNYNMAWFRQSPGKEREFVAALSWGDSNTGYADSVKGRFTISRDNAKNTVYLQMNSLKPEDTAVYYCYAVTWLRGDYWGQGTQVTVSS
2. Bacillus subtilis-derived VHH-COVE2 (VHH) VHH: AEVQLVESGGGLVQAGDSLRLSCAATRRTSSTYAMGWFRQAPGKGLEWVAAISWDGGRTYYAESVKGRFTISRDNAKNTVYLQMNSLKPEDTAVYYCYSFGGSDFLMDYWGQGTQVTVSSGGGSHHHHHH

Reply:
[42.4, 2.96]
